Tested on: NF-κB
protocol.description: Anti-inflammatory assay: NFκB activity in TNF-α stimulated mammalian cell culture (PRINCESS NINA NFκB Assay Kit)
Format: cell-based
assay.conditions: TNF-α elicited response = 100%; read-out: concentration inhibiting 50% of the NF-κB mediated inflammatory response
parameter: IC50 (µM)
State the answer as a number, implicitly in µM.

Form: item CCCCCCC1C=CC(=O)O1 (stereo not shown) [P1639C, 5-hexylfuran-2(5H)-one] ; test system NF-κB; IC50: 20
